# MEASUREMENT_TARGET: α1A Human Adrenergic Receptor (Homo sapiens, UniProt P25100)
# Construct: expressed in transfected cells; host or cells: LM(tk-) cells
# Sequence (P25100 whole entry): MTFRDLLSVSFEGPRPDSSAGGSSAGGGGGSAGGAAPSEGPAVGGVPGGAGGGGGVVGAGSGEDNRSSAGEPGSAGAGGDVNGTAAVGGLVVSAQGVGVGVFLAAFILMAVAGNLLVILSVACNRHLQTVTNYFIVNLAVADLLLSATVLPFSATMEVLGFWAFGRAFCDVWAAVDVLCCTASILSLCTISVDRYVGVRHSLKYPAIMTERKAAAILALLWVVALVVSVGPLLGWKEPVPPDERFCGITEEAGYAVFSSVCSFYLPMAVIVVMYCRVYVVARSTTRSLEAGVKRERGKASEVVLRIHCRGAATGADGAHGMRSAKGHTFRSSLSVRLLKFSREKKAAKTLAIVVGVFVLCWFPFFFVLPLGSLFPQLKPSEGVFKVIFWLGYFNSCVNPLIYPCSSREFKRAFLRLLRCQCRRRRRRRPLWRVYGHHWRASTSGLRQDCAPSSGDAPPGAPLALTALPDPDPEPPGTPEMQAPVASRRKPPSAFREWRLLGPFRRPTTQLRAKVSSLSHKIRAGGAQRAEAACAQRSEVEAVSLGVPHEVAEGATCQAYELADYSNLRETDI
# ASSAY_SUMMARY: Equilibrium competition binding, [3H] prazosin, membranes of transfected LM(tk-) cells
OBSERVABLE: pKi
Scale explanation: pKi corresponds to minus log10 of a concentration expressed in moles per litre.

Record request: pKi value, item Brc1c(NC2=NCCN2)ccc2ncn(Cc3ccccc3)c12
6.51

Record request: pKi value, item CC(C)n1cnc2c(Br)c(NC3=NCCN3)ccc21
5.57

Record request: pKi value, item c1cc2c(cc1NC1=NCCN1)ncn2C1CCCC1
5.21

Record request: pKi value, item CCc1nc2ccc(NC3=NCCN3)c(Br)c2[nH]1
5.76

Record request: pKi value, item Brc1cc2nc[nH]c2c(Br)c1NC1=NCCN1
7.45

Record request: pKi value, item CCCn1cnc2cc(NC3=NCCN3)ccc21
4.98

Record request: pKi value, item CC(C)Cn1cnc2c(Br)c(NC3=NCCN3)ccc21
5.30

Record request: pKi value, item c1cc2ncn(C3CCCC3)c2cc1NC1=NCCN1
5.08

Record request: pKi value, item OCCn1cnc2c(Br)c(NC3=NCCN3)ccc21
5.14

Record request: pKi value, item CCCn1cnc2ccc(NC3=NCCN3)c(Br)c21
7.26

Record request: pKi value, item Clc1c(NC2=NCCN2)ccc2nc[nH]c12
6.27

Record request: pKi value, item Clc1cc(NC2=NCCN2)cc2[nH]cnc12
6.51

Record request: pKi value, item CC(C)n1cnc2ccc(NC3=NCCN3)cc21
4.83

Record request: pKi value, item COc1ccc(Cn2cnc3c(Br)c(NC4=NCCN4)ccc32)cc1
6.09

Record request: pKi value, item CC(C)Cn1cnc2cc(NC3=NCCN3)ccc21
4.98

Record request: pKi value, item Clc1cc(NC2=NCCN2)c(Br)c2[nH]cnc12
6.65

Record request: pKi value, item Brc1c(NC2=NCCN2)ccc2nc[nH]c12
6.02

Record request: pKi value, item CC(C)(C)c1nc2ccc(NC3=NCCN3)c(Br)c2[nH]1
5.34

Record request: pKi value, item CC(C)Cn1cnc2ccc(NC3=NCCN3)c(Br)c21
6.51

Record request: pKi value, item c1ccc(Cn2cnc3ccc(NC4=NCCN4)cc32)cc1
5.59

Record request: pKi value, item Ic1c(NC2=NCCN2)ccc2nc[nH]c12
6.27

Record request: pKi value, item Cc1nc2ccc(NC3=NCCN3)c(Br)c2[nH]1
5.79

###

# MEASUREMENT_TARGET: α2B Human Adrenergic Receptor (Homo sapiens)
# Construct: expressed in transfected cells; host or cells: Y-1 cells
# ASSAY_SUMMARY: Equilibrium competition binding, [3H] rauwolscine, membranes of transfected Y-1 cells
Hi there, I'd appreciate the recorded Ki for every entry that follows.

Record request: Ki value, item CC(C)n1cnc2cc(NC3=NCCN3)ccc21
661 nM

Record request: Ki value, item CC(C)Cn1cnc2cc(NC3=NCCN3)ccc21
427 nM

Record request: Ki value, item CCCn1cnc2cc(NC3=NCCN3)ccc21
363 nM

Record request: Ki value, item Cc1nc2ccc(NC3=NCCN3)c(Br)c2[nH]1
23.4 nM

Record request: Ki value, item Cn1cnc2ccc(NC3=NCCN3)cc21
224 nM

Record request: Ki value, item CC(C)(C)c1nc2ccc(NC3=NCCN3)c(Br)c2[nH]1
83.2 nM

Record request: Ki value, item CC(C)Cn1cnc2ccc(NC3=NCCN3)c(Br)c21
12.9 nM

Record request: Ki value, item FC(F)(F)c1nc2ccc(NC3=NCCN3)c(Br)c2[nH]1
105 nM

Record request: Ki value, item CC(C)n1cnc2c(Br)c(NC3=NCCN3)ccc21
372 nM

Record request: Ki value, item Cc1cc2nc[nH]c2cc1NC1=NCCN1
36.3 nM

Record request: Ki value, item CCc1c(NC2=NCCN2)ccc2nc[nH]c12
22.4 nM

Record request: Ki value, item Brc1cc(NC2=NCCN2)c(Br)c2[nH]cnc12
174 nM

Record request: Ki value, item Brc1c(NC2=NCCN2)ccc2nc(C3CC3)[nH]c12
44.7 nM

Record request: Ki value, item CCc1cc(NC2=NCCN2)cc2[nH]cnc12
209 nM

Record request: Ki value, item c1cc2ncn(C3CCCC3)c2cc1NC1=NCCN1
1020 nM

Record request: Ki value, item Brc1cc(NC2=NCCN2)cc2[nH]cnc12
27.5 nM

Record request: Ki value, item Cc1cc(NC2=NCCN2)cc2[nH]cnc12
77.6 nM

Record request: Ki value, item Cc1cc(NC2=NCCN2)c(Br)c2[nH]cnc12
7.94 nM

Record request: Ki value, item c1cc2c(cc1NC1=NCCN1)ncn2C1CCCC1
646 nM

Record request: Ki value, item CC(C)c1nc2ccc(NC3=NCCN3)c(Br)c2[nH]1
46.8 nM

Record request: Ki value, item Brc1cc2nc[nH]c2c(Br)c1NC1=NCCN1
2.34 nM

Record request: Ki value, item Ic1c(NC2=NCCN2)ccc2nc[nH]c12
30.9 nM

###

# MEASUREMENT_TARGET: α2B Human Adrenergic Receptor (Homo sapiens)
# Construct: expressed in transfected cells; host or cells: Y-1 cells
# ASSAY_SUMMARY: Equilibrium competition binding, [3H] rauwolscine, membranes of transfected Y-1 cells
OBSERVABLE: log10(Ki) (log10 of the value in nM)
Record value = log10 of Ki given in nM.

Record request: log10(Ki) value, item Clc1cc(NC2=NCCN2)cc2[nH]cnc12
1.26

Record request: log10(Ki) value, item c1nc2ccc(NC3=NCCN3)cc2[nH]1
1.87

Record request: log10(Ki) value, item Cn1cnc2c(Br)c(NC3=NCCN3)ccc21
1.45

Record request: log10(Ki) value, item Clc1cc(NC2=NCCN2)c(Br)c2[nH]cnc12
-0.33

Record request: log10(Ki) value, item CCc1nc2ccc(NC3=NCCN3)c(Br)c2[nH]1
1.53

###

# MEASUREMENT_TARGET: α2B Human Adrenergic Receptor (Homo sapiens, UniProt P18089)
# Construct: expressed in transfected cells; host or cells: Y-1 cells
# Sequence (P18089 whole entry): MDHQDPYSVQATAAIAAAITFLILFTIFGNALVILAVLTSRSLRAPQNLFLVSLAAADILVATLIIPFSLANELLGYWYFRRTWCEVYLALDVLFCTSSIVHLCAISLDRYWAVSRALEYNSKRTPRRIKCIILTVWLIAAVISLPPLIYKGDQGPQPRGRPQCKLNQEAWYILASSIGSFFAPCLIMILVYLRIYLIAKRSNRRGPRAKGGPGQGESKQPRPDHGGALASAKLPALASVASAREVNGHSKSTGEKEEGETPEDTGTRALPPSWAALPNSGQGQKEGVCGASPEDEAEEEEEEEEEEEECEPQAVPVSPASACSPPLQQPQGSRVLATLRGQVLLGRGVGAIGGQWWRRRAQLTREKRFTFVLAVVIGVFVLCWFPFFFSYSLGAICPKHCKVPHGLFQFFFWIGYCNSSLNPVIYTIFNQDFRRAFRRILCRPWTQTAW
# Type: cell-based
# EXPERIMENTAL_CONDITIONS: inhibition of forskolin-stimulated cAMP; NA: Not Active; read-out: pEC50 Alpha-2 B (converted)
OBSERVABLE: EC50 (nM)
State just the number; it will be interpreted in nM.

Record request: EC50 value, item CCCCc1c(NC2=NCCN2)ccc2nc[nH]c12
234

Record request: EC50 value, item OCCn1cnc2c(Br)c(NC3=NCCN3)ccc21
158

Record request: EC50 value, item Brc1c(NC2=NCCN2)ccc2nc(C(c3ccccc3)c3ccccc3)[nH]c12
200

Record request: EC50 value, item Cn1cnc2cc(NC3=NCCN3)ccc21
58.9

Record request: EC50 value, item c1ccc(-c2cc(NC3=NCCN3)cc3[nH]cnc23)cc1
8510

###

Counter-ions that a name gives are not always drawn.
OBSERVABLE: melting point

Record request: melting point value, item Brc1c(NC2=NCCN2)ccc2nc(C(c3ccccc3)c3ccccc3)[nH]c12 (as salt: fumarate)
240 to 242 °C

Record request: melting point value, item CC(C)n1cnc2cc(NC3=NCCN3)ccc21 (as salt: fumarate)
185 to 186 °C

Record request: melting point value, item CC(C)n1cnc2c(Br)c(NC3=NCCN3)ccc21 (as salt: fumarate)
187 to 188 °C

Record request: melting point value, item c1nc2ccc(NC3=NCCN3)cc2[nH]1 (as salt: fumarate)
196 to 198 °C

Record request: melting point value, item Brc1c(NC2=NCCN2)ccc2ncn(CC3CCCCC3)c12 (as salt: fumarate)
153 to 155 °C

Record request: melting point value, item Brc1cc(NC2=NCCN2)cc2[nH]cnc12 (as salt: fumarate)
217 to 218 °C

Record request: melting point value, item Brc1c(NC2=NCCN2)ccc2c1ncn2CC1CCCCC1 (as salt: fumarate)
193 to 195 °C

Record request: melting point value, item Brc1c(NC2=NCCN2)ccc2c1ncn2C1CCCC1 (as salt: fumarate)
180 to 182 °C

Record request: melting point value, item Cn1cnc2cc(NC3=NCCN3)ccc21 (as salt: fumarate)
210 to 211 °C

Record request: melting point value, item Cc1nc2ccc(NC3=NCCN3)c(Br)c2[nH]1 (as salt: fumarate)
222 to 224 °C

Record request: melting point value, item Ic1c(NC2=NCCN2)ccc2nc[nH]c12 (as salt: fumarate)
256 °C

Record request: melting point value, item CC(C)c1nc2ccc(NC3=NCCN3)c(Br)c2[nH]1 (as salt: fumarate)
176 to 178 °C

Record request: melting point value, item CC(C)Cn1cnc2ccc(NC3=NCCN3)c(Br)c21 (as salt: fumarate)
187 to 188 °C

Record request: melting point value, item Brc1cc(NC2=NCCN2)c(Br)c2[nH]cnc12
320 to 321 °C

Record request: melting point value, item OCCn1cnc2c(Br)c(NC3=NCCN3)ccc21 (as salt: fumarate)
141 to 143 °C

Record request: melting point value, item CC(C)n1cnc2ccc(NC3=NCCN3)c(Br)c21 (as salt: fumarate)
210 to 212 °C

Record request: melting point value, item Brc1c(NC2=NCCN2)ccc2c1ncn2Cc1ccccc1 (as salt: fumarate)
197 to 198 °C
